Data provenance is patent US20060069123A1.

Biological target: CCR2 (Homo sapiens, UniProt P41597)
Settings: read-out: Inhibition of MCP-1 Binding IC50; 125I labeled MCP-1 binding to CCR2, THP-1 cells
pIC50: −log10 of the molar value.
REPORTED_PROPERTY: pIC50

compound="O=C(/C=C/c1cc(F)cc(F)c1)N1CCC(C(CO)N2CCC(c3n[nH]c4ccccc34)CC2)CC1 (centres unmarked)" test_system="CCR2 (Homo sapiens, UniProt P41597)" reported_property=pIC50 reported_value=6.37
compound="COc1ccc(C2CCN(C(CO)C3CCN(C(=O)/C=C/c4cc(F)c(F)cc4F)CC3)CC2)cc1 (centres unmarked)" test_system="CCR2 (Homo sapiens, UniProt P41597)" reported_property=pIC50 reported_value=5.80

* * *

Biological target: CCR2 (Homo sapiens, UniProt P41597)
Sequence (P41597 1-360 isoform P41597-2): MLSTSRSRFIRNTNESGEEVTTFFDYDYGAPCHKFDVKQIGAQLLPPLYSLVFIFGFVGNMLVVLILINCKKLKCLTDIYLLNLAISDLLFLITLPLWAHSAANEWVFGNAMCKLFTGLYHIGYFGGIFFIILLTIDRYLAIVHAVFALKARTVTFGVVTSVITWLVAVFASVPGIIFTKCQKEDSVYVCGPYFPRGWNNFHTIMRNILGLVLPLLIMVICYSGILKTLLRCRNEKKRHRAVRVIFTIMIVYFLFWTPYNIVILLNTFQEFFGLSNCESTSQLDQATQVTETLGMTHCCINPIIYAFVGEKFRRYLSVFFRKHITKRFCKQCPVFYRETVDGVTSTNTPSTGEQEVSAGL
pIC50: −log10 of the molar value.
Recorded pIC50 for the following compounds
REPORTED_PROPERTY: pIC50

compound="O=C(O)C(C1CCN(C(=S)Nc2ccc(F)cc2F)CC1)N1CCC(c2c[nH]c3ccccc23)CC1 (stereo not shown)" reported_property=pIC50 reported_value=5.57
compound="COc1ccc2c(C3CCN(C(CO)C4CCN(C(=O)/C=C/c5ccc(Cl)c(Cl)c5)CC4)CC3)c[nH]c2c1 (stereo not shown)" reported_property=pIC50 reported_value=7.52
compound="CCOC(=O)C(C1CCN(C(=O)/C=C/c2cc(F)c(F)c(F)c2)CC1)N1CCC(c2c[nH]c3ncccc23)CC1 (stereo not shown)" reported_property=pIC50 reported_value=5.72
compound="O=C(C=Cc1ccc(F)c(F)c1)N1CCC(C(CO)N2CCC(c3c[nH]c4ccc(F)cc34)CC2)CC1 (stereo not shown)" reported_property=pIC50 reported_value=6.92

* * *

Recorded IC50 for the following compounds
Tested on: THP-1 cells
Conditions: read-out: Inhibition of MCP-1 Induced Calcium Ion Influx IC50; THP-1 cells, 0.2 μM MCP-1, FLIPR
REPORTED_PROPERTY: IC50 (nM)

compound="COc1ccc2c(C3CCN(C(CO)C4CCN(C(=O)/C=C/c5cc(F)c(F)c(F)c5)CC4)CC3)c[nH]c2c1 (stereo not shown) [Cpd 132]" test_system="THP-1 cells" reported_value=3
compound="O=C(/C=C/c1cc(F)cc(F)c1)N1CCC(C(CO)N2CCC(c3nc4cc(Cl)c(Cl)cc4[nH]3)CC2)CC1 (stereo not shown)" test_system="THP-1 cells" reported_value=11000
compound="COc1ccc(C2CCN(C(CO)C3CCN(C(=O)C#Cc4cc(F)c(F)c(F)c4)CC3)CC2)cc1 (stereo not shown)" test_system="THP-1 cells" reported_value=3900
compound="COc1ccc2c(C3CCN(C(CO)C4CCN(C(=O)/C=C/c5cc(F)c(F)c(F)c5)CC4)CC3)c[nH]c2c1 (stereo not shown) [Cpd 167]" test_system="THP-1 cells" reported_value=30
